Tested on: MCF7
Assay: Cytotoxicity against human MCF7 cells assessed as reduction in cell viability incubated for 48 hrs by MTT assay
Type: functional, cell-based
Settings: MCF7, 48 h
Each record here notes measured pIC50.
// field semantics: pIC50 = negative decimal log of concentration (mol/L)

Smiles code: S=C(NCCc1ccccc1)N/N=C\c1ccnc2ccccc12
pIC50: 5.96

What value of measured pIC50 is listed for `S=C(N/N=C\c1ccnc2ccccc12)Nc1ccccc1` ?
5.97

Would you kindly share the measured pIC50 for `S=C(N/N=C\c1ccnc2ccccc12)Nc1cccnc1` ?
6.01

Which pIC50 value is on record for `CCc1ccc(NC(=S)N/N=C\c2ccnc3ccccc23)cc1` ?
6.09

Using the record for `Fc1ccc(NC(=S)N/N=C\c2ccnc3ccccc23)cc1` , report its pIC50.
5.96

# query: pIC50 of entry `S=C(N/N=C\c1ccnc2ccccc12)Nc1ccc(Br)cc1`
6.00

Which pIC50 value belongs to `C=CCNC(=S)N/N=C\c1ccnc2ccccc12` ?
6.01

* * *

CC50 at 48 h overview
Assay: Cytotoxicity against mouse RAW264.7 cells assessed as reduction in cell viability incubated for 48 hrs by MTT assay
Type: cell-based
Write the value in µM as a bare number.

Use these answered entries as a reference point.
Smiles code: S=C(N/N=C\c1ccnc2ccccc12)Nc1ccc(Cl)cc1
Test result: 63.5
//
Smiles code: S=C(N/N=C\c1ccnc2ccccc12)Nc1ccccc1
Test result: 118

Now consider a different compound.
Fill in the blank: the reported CC50 at 48 h of `C=CCNC(=S)N/N=C\c1ccnc2ccccc12` is ____.
105

* * *

Test system: Calf thymus DNA
Experiment: Binding affinity to calf thymus DNA assessed as hyperchromicity at 30 uM incubated for 10 mins by UV-Vis absorption spectroscopic method relative to control
Format: nucleic-acid assay
Details: Bos taurus
Measured endpoint: Activity (%)
// units = %; emit number, no label

What value of measured Activity is listed for `COc1ccc(NC(=S)N/N=C\c2ccnc3ccccc23)cc1` ?
59.6

* * *

Target: Albumin (Bos taurus)
Sequence (P02769 whole entry): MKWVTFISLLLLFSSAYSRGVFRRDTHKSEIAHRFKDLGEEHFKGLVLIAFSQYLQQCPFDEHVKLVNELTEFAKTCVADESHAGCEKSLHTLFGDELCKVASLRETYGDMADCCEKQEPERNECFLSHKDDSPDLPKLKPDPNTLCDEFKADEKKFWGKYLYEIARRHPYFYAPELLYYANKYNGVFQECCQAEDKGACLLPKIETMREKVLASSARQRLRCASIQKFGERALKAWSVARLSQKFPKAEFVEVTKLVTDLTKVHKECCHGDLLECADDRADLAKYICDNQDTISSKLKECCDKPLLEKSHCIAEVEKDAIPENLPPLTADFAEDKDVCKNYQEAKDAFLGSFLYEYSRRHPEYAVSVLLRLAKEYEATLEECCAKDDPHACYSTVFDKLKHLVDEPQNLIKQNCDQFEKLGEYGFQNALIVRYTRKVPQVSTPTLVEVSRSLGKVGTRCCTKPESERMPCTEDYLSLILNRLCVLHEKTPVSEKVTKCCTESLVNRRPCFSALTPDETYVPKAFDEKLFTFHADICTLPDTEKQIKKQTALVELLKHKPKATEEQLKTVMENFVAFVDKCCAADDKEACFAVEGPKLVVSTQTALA
Experiment: Binding affinity to bovine serum albumin assessed as binding constant incubated for 10 mins by UV-Vis absorption spectroscopic method
Assay type: ADME
Details: cattle, isolated protein
Measured endpoint: Kb (×10⁵ /M)
# output: bare number, implied unit ×10⁵ /M

Use these answered entries as a reference point.
Smiles code: CCc1ccc(NC(=S)N/N=C\c2ccnc3ccccc23)cc1
Measured endpoint: Kb
Test result: 1.43
//
Smiles code: Cc1ccc(NC(=S)N/N=C\c2ccnc3ccccc23)cc1
Measured endpoint: Kb
Test result: 1.39
//
Smiles code: S=C(NCCc1ccccc1)N/N=C\c1ccnc2ccccc12
Measured endpoint: Kb
Test result: 1.08
//
Smiles code: C=CCNC(=S)N/N=C\c1ccnc2ccccc12
Measured endpoint: Kb
Test result: 1.44
//
Smiles code: S=C(N/N=C\c1ccnc2ccccc12)Nc1ccc(Br)cc1
Measured endpoint: Kb
Test result: 1.17

What does the data say about its Kb? Entry: `O=[N+]([O-])c1ccc(NC(=S)N/N=C\c2ccnc3ccccc23)cc1`
1.03

Using the record for `S=C(N/N=C\c1ccnc2ccccc12)Nc1cccc2ccccc12` , report its Kb.
1.13

May I ask what Kb has been recorded for `S=C(N/N=C\c1ccnc2ccccc12)Nc1ccc(Cl)cc1` ?
1.13

* * *

System: T47D
Experiment: Cytotoxicity against human T47D cells assessed as reduction in cell viability incubated for 48 hrs by MTT assay
Assay type: functional, cell-based
We begin with a simple list: items and their reported pIC50.
// field semantics: pIC50 = negative decimal log of concentration (mol/L)

Smiles code: S=C(N/N=C\c1ccnc2ccccc12)Nc1cccnc1
Target or test system: T47D
pIC50: 5.96
//
Smiles code: S=C(N/N=C\c1ccnc2ccccc12)Nc1ccc(Br)cc1
Target or test system: T47D
pIC50: 5.83
//
Smiles code: COc1ccc(NC(=S)N/N=C\c2ccnc3ccccc23)cc1
Target or test system: T47D
pIC50: 5.87
//
Smiles code: O=[N+]([O-])c1ccc(NC(=S)N/N=C\c2ccnc3ccccc23)cc1
Target or test system: T47D
pIC50: 5.88
//
Smiles code: C=CCNC(=S)N/N=C\c1ccnc2ccccc12
Target or test system: T47D
pIC50: 5.91

Okay, next one:
If you can, please state the reported pIC50 value of `S=C(N/N=C\c1ccnc2ccccc12)Nc1ccc(Cl)cc1` .
5.90

* * *

Biological target: UniProt P11388
Sequence (P11388 whole entry): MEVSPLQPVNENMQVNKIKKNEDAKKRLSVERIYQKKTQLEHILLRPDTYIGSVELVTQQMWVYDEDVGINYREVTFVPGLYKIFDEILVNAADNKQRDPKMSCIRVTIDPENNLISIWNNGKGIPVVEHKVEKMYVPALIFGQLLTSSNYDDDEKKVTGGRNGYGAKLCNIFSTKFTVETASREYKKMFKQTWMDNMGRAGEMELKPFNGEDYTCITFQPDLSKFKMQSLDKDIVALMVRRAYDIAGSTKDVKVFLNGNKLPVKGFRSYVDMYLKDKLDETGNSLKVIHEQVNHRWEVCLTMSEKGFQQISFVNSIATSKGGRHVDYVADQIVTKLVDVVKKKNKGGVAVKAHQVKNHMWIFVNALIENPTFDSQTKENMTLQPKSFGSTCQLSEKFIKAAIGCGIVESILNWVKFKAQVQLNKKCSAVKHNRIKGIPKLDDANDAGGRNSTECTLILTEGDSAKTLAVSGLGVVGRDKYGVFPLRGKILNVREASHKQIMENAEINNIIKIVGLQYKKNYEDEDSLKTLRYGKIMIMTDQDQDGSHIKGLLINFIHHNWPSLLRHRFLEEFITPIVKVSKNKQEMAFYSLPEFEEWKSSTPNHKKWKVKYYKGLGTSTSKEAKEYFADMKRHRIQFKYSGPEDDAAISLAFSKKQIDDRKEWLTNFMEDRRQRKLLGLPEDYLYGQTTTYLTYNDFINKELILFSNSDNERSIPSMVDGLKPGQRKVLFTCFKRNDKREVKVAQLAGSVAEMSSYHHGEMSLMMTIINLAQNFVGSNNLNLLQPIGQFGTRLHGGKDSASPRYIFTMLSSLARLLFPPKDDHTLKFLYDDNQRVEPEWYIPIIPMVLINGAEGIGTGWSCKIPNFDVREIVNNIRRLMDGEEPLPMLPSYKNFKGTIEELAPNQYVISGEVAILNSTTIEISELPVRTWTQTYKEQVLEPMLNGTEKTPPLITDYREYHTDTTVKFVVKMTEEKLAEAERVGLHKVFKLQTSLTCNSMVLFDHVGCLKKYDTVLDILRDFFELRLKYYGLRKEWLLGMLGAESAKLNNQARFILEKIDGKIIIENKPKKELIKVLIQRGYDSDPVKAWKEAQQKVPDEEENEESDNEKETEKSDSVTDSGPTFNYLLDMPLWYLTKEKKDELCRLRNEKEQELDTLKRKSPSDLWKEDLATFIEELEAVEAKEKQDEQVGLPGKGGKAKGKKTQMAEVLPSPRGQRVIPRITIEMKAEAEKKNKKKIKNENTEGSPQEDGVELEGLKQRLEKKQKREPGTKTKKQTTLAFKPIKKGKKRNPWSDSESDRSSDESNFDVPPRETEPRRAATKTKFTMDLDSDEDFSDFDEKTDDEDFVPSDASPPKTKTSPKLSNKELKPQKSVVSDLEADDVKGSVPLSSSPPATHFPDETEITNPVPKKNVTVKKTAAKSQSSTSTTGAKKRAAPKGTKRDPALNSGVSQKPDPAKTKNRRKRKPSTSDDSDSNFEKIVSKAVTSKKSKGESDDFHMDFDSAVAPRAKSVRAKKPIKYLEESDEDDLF
Test: Inhibition of recombinant human topoisomerase 2alpha using supercoiled pUC19 plasmid DNA as substrate at 10 uM incubated for 45 mins by ethidium bromide dye based agarose gel electrophoresis method
Activity calls are given as the source filed them. The rule behind the calls is not given here.
Output constraint: value belongs to TRUE = active, FALSE = inactive

Reference set (5 entries):
Smiles code: COc1ccc(NC(=S)N/N=C\c2ccnc3ccccc23)cc1
Label class: TRUE
//
Smiles code: Fc1ccc(NC(=S)N/N=C\c2ccnc3ccccc23)cc1
Label class: TRUE
//
Smiles code: COc1cc(NS(C)(=O)=O)ccc1Nc1c2ccccc2nc2ccccc12
Label class: TRUE
//
Smiles code: S=C(NCCc1ccccc1)N/N=C\c1ccnc2ccccc12
Label class: FALSE
//
Smiles code: S=C(N/N=C\c1ccnc2ccccc12)Nc1cccnc1
Label class: FALSE

// return assay outcome for `S=C(N/N=C\c1ccnc2ccccc12)Nc1ccc(Br)cc1`
TRUE

I'd appreciate the recorded outcome for `S=C(N/N=C\c1ccnc2ccccc12)Nc1ccccc1` from this test.
TRUE

Assay outcome for `O=[N+]([O-])c1ccc(NC(=S)N/N=C\c2ccnc3ccccc23)cc1` : what was it?
FALSE

* * *

System: Calf thymus DNA
Experiment: Binding affinity to calf thymus DNA assessed as hypochromicity at 30 uM incubated for 10 mins by UV-Vis absorption spectroscopic method relative to control
Type: nucleic-acid assay
Details: Bos taurus
Measured endpoint: Activity (%)
Provide the reading as a plain figure in %.

Reference set (5 entries):
Smiles code: O=[N+]([O-])c1ccc(NC(=S)N/N=C\c2ccnc3ccccc23)cc1
Target or test system: Calf thymus DNA
Measured endpoint: Activity
Test result: 12.9
//
Smiles code: S=C(NCCc1ccccc1)N/N=C\c1ccnc2ccccc12
Target or test system: Calf thymus DNA
Measured endpoint: Activity
Test result: 27.4
//
Smiles code: S=C(N/N=C\c1ccnc2ccccc12)Nc1ccc(Br)cc1
Target or test system: Calf thymus DNA
Measured endpoint: Activity
Test result: 10.8
//
Smiles code: S=C(N/N=C\c1ccnc2ccccc12)Nc1ccc(Cl)cc1
Target or test system: Calf thymus DNA
Measured endpoint: Activity
Test result: 8.51
//
Smiles code: S=C(N/N=C\c1ccnc2ccccc12)Nc1cccnc1
Target or test system: Calf thymus DNA
Measured endpoint: Activity
Test result: 20.3

The record that follows has no Activity shown yet.
What reported Activity corresponds to `S=C(N/N=C\c1ccnc2ccccc12)Nc1ccccc1` on Calf thymus DNA?
52.3

* * *

Test system: Calf thymus DNA
Experiment: Binding affinity to calf thymus DNA assessed as fold change in hypochromicity at 10 uM by fluorescence emission spectrum analysis relative to control
Assay type: nucleic-acid assay
Settings: Bos taurus
Each entry gets Not satisfied if its fold change (FC) stays under 4, and Satisfied if its fold change (FC) is 4 or above.

Known results for compounds:
Smiles code: S=C(N/N=C\c1ccnc2ccccc12)Nc1ccc(Cl)cc1
Label class: Not satisfied
--
Smiles code: COc1ccc(NC(=S)N/N=C\c2ccnc3ccccc23)cc1
Label class: Satisfied
--
Smiles code: S=C(N/N=C\c1ccnc2ccccc12)Nc1ccccc1
Label class: Not satisfied
--
Smiles code: O=[N+]([O-])c1ccc(NC(=S)N/N=C\c2ccnc3ccccc23)cc1
Label class: Satisfied
--
Smiles code: C=CCNC(=S)N/N=C\c1ccnc2ccccc12
Label class: Satisfied
--
Smiles code: Cc1ccc(NC(=S)N/N=C\c2ccnc3ccccc23)cc1
Label class: Not satisfied
--
Smiles code: S=C(NCCc1ccccc1)N/N=C\c1ccnc2ccccc12
Label class: Satisfied
--
Smiles code: S=C(N/N=C\c1ccnc2ccccc12)Nc1ccc(Br)cc1
Label class: Satisfied

Hi, just wondering whether `CCc1ccc(NC(=S)N/N=C\c2ccnc3ccccc23)cc1` shows fold change (FC) of 4 or higher.
Satisfied

Threshold query (fold change (FC) >= 4) on `S=C(N/N=C\c1ccnc2ccccc12)Nc1cccc2ccccc12`
Not satisfied

Is fold change (FC) for `Fc1ccc(NC(=S)N/N=C\c2ccnc3ccccc23)cc1` at or above 4?
Not satisfied

* * *

Test system: T47D
Assay: Cytotoxicity against human T47D cells assessed as reduction in cell viability incubated for 48 hrs by MTT assay
Assay type: functional, cell-based
Measured endpoint: IC50 (nM)
The figure you give is taken to be in nM; do not add the unit.

Guide cases for IC50, answers given:
Molecule: S=C(N/N=C\c1ccnc2ccccc12)Nc1ccccc1
Target or test system: T47D
IC50 (nM): 1380
--
Molecule: COc1cc(NS(C)(=O)=O)ccc1Nc1c2ccccc2nc2ccccc12 [AMSACRINE]
Target or test system: T47D
IC50 (nM): 940
--
Molecule: CCc1ccc(NC(=S)N/N=C\c2ccnc3ccccc23)cc1
Target or test system: T47D
IC50 (nM): 1280
--
Molecule: S=C(NCCc1ccccc1)N/N=C\c1ccnc2ccccc12
Target or test system: T47D
IC50 (nM): 1120
--
Molecule: Fc1ccc(NC(=S)N/N=C\c2ccnc3ccccc23)cc1
Target or test system: T47D
IC50 (nM): 1070

Form field: reported IC50 of `S=C(N/N=C\c1ccnc2ccccc12)Nc1cccc2ccccc12`
1210

Would you mind telling me what IC50 value was observed for `Cc1ccc(NC(=S)N/N=C\c2ccnc3ccccc23)cc1` ?
1320

# credit: ChEMBL document CHEMBL4406827
